Target: Cytochrome P450 3A4 (Homo sapiens) (UniProt P08684)
Sequence (P08684 whole entry, looked up): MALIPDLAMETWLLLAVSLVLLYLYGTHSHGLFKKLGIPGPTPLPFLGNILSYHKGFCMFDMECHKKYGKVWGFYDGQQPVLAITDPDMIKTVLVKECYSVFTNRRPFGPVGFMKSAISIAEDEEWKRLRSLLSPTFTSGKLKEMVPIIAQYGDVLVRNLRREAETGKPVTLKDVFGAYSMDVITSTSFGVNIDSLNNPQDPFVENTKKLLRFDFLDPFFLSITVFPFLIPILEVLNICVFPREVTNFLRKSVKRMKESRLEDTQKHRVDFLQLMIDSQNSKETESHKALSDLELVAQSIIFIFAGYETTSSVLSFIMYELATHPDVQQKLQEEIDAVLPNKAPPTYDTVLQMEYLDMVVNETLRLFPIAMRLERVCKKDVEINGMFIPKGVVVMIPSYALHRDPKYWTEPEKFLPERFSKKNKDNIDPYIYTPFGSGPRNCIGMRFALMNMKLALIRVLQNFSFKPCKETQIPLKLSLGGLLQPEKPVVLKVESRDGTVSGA
Test: Cytochrome panel assay with activity outcomes
Settings: recombinant CYP, pro-luciferin dealkylation, luminescence, p450-cyp3a4; series mostly up to 57.1 µM
Screen size: about 16,000 compounds; about 5,100 (32%) were called active. Inconclusive results (about 25%) are left out. This is one part of the list.
MEASURED ENDPOINT: AC50

>  <COMPOUND STRUCTURE STRING>
COc1cccc(Cn2c(=O)c(-c3cccs3)nc3cnc(OC)nc32)c1

>  <AC50>
3.98 µM (active)

$$$$
>  <COMPOUND STRUCTURE STRING>
COc1ccccc1Cn1c(=S)[nH]c2cc(C(=O)N3CCN(C)CC3)ccc2c1=O

>  <AC50>
inactive

$$$$
>  <COMPOUND STRUCTURE STRING>
CN(C)Cc1ccccc1-c1nccc(N(C)C)n1

>  <AC50>
10 µM (active)

$$$$
>  <COMPOUND STRUCTURE STRING>
O=C(Nc1cc(C(=O)Nc2ccc(S(=O)(=O)O)cc2S(=O)(=O)O)cc(C(=O)Nc2ccc(S(=O)(=O)O)cc2S(=O)(=O)O)c1)Nc1cc(C(=O)Nc2ccc(S(=O)(=O)O)cc2S(=O)(=O)O)cc(C(=O)Nc2ccc(S(=O)(=O)O)cc2S(=O)(=O)O)c1

>  <AC50>
inactive

$$$$
>  <COMPOUND STRUCTURE STRING>
COc1ccc(-n2nnnc2SCC(=O)Nc2ccccc2)cc1

>  <AC50>
14.1 µM (active)

$$$$

[Q] Provide value of AC50 for this record tested with Cytochrome P450 3A4 (Homo sapiens) (UniProt P08684): COc1ccc(NC(=O)CSc2ccc3c4c(cccc24)C(=O)c2ccccc2-3)cc1
[A] 1 µM (active)

[Q] // same read-out, input: COc1ccc(Oc2ncc3nc(-c4cccs4)c(=O)n(Cc4cccc(OC)c4)c3n2)cc1
[A] 3.98 µM (active)

[Q] // same read-out, input: CCOc1ccc(S(=O)(=O)NCc2ccc(F)cc2)c2cccnc12
[A] 15.8 µM (active)

[Q] // same read-out, input: COc1cccc(NC(=S)N(CCc2nc3cc(C)c(C)cc3[nH]2)Cc2cccnc2)c1
[A] 2.51 µM (active)

[Q] // same read-out, input: CSc1nc(NC2CCCC2)c([N+](=O)[O-])c(NC2CCCC2)n1
[A] inactive

[Q] // same read-out, input: CN1CCc2cc3c(cc2[C@@H]1[C@@H]1C(=O)Oc2c1ccc1c2OCO1)OCO3
[A] 1.26 µM (active)

====

Target: Cytochrome P450 3A4 (Homo sapiens)
Assay: Cytochrome panel assay with activity outcomes
Settings: recombinant CYP, pro-luciferin dealkylation, luminescence, p450-cyp3a4; series mostly up to 57.1 µM
Procedure: The P450 gene superfamily is involved in the metabolism and clearance of xenobiotics. This assay used various human CYP P450 isozymes to measure the dealkylation of various pro-luciferin substrates to luciferin. The luciferin is then measured by luminescence after the addition of a luciferase detection reagent. […] Inhibitors and some substrates limit the production of luciferin, and decrease measured luminescence. […] 8, Detection, 1 sec, ViewLux luminescent read […]
In all, about 16,000 compounds went through this assay and about 5,100 (32%) were called active. About 25% were inconclusive and are not listed. Calls follow the shape of the dose curve; as a rule, active = well fitted curve in the direction sought with a large enough effect; inconclusive = small, poorly fitted or top-dose-only effect, or effect the other way; inactive = no such curve, though single readings can be large or run the other way. This is one part of the list.
Bench note: report the call from TRUE (active), FALSE (inactive)

[Q] Would you mind telling me which call this test gave Nc1cc(Cl)ccc1Oc1ccc(Cl)cc1 ?
[A] FALSE

[Q] // same read-out, input: c1ccc(Cc2nnc(Sc3ccccc3)c3ccccc23)cc1
[A] TRUE

[Q] // same read-out, input: COc1cc2nc(N3CCN(C(=O)OCc4ccccc4)[C@H](C(=O)NC(C)(C)C)C3)nc(N)c2cc1OC
[A] TRUE

[Q] // same read-out, input: Cc1ccc(Oc2nn[nH]n2)cc1
[A] FALSE

[Q] // same read-out, input: COCC1C2CC[C@H]3C(OCc4ccc(F)cc4C(F)(F)F)OC[C@]4(C)[C@H]3C2=C(CN4C(=O)OC(C)(C)C)[C@H](C)C1COC (stereo partly specified)
[A] TRUE

[Q] // same read-out, input: CCn1cc(C(=O)N/N=C(/C)c2ccc(F)cc2)c(=O)c2cc(F)c(N3CCCC3)cc21
[A] FALSE

[Q] // same read-out, input: COc1ccc(N2C(=O)CSC2c2cccc(F)c2)c(OC)c1 (stereo unspecified)
[A] TRUE

[Q] // same read-out, input: Cc1cc(Cl)ccc1Oc1ncc(-c2ccc(Cl)cc2)cn1
[A] TRUE

[Q] // same read-out, input: CC(C)CC(c1nnnn1C(C)C)N1CCN(c2ccccc2)CC1 (stereo unspecified)
[A] TRUE

[Q] // same read-out, input: Clc1ccc(-c2cc3ccccc3[nH]2)cc1
[A] FALSE

[Q] // same read-out, input: Oc1[nH]c2ccccc2c1N=Nc1ccc(C(F)(F)F)cn1
[A] FALSE

[Q] // same read-out, input: FC(F)(F)c1nnc(-c2ccccc2)nc1Sc1ccccc1
[A] FALSE

[Q] // same read-out, input: CNC(=S)N1N=C(c2ccc(OC)cc2)CC1c1ccc(N(C)C)cc1 (stereo unspecified)
[A] TRUE

[Q] // same read-out, input: Oc1[nH]c2ccccc2c1/C=N/c1nccs1
[A] TRUE

[Q] // same read-out, input: Cc1cccc(CNc2ncnc3ccc(-c4cccnc4)cc23)c1
[A] TRUE

[Q] // same read-out, input: COC(=O)N/N=C\C=C\c1ccc2c(c1)OCO2
[A] FALSE
